assay: Clearance in rat; format: ADME, organism-based; settings: in vivo
recorded.endpoint: clearance (mL/min/kg)

CC(C)C[C@H](NC(=O)CN1CCN(c2ccncc2)CC1)C(=O)N[C@H](C#N)COCc1ccccc1 :: 320

I. CC(C)C[C@H](NC(=O)c1cc2ccccc2n1C)C(=O)N[C@H](C#N)COCc1ccccc1
II. CC(C)C[C@H](NC(=O)OCc1ccccc1)C(=O)N[C@H](C#N)COCc1ccccc1
III. CC(C)C[C@H](NC(=O)C(C)(C)Oc1ccc(Cl)cc1)C(=O)N[C@H](C#N)COCc1ccccc1
IV. Cc1nc[nH]c1CC(=O)N[C@@H](CC(C)C)C(=O)N[C@H](C#N)COCc1ccccc1
## Task Ordering: ascending clearance. I would appreciate it if you listed the labels in the requested order.
## Result II, I, III, IV
(II: 45 mL/min/kg, I: 82 mL/min/kg, III: 141 mL/min/kg, IV: 396 mL/min/kg)

* * *

experiment: Terminal half life in rat; format: ADME, organism-based; details: in vivo
recorded.endpoint: half-life (h)

1. CC(C)C[C@H](NC(=O)OCc1ccccc1)C(=O)N[C@H](C#N)COCc1ccccc1
2. Cc1nc[nH]c1CC(=O)N[C@@H](CC(C)C)C(=O)N[C@H](C#N)COCc1ccccc1
3. CC(C)C[C@H](NC(=O)c1cc2ccccc2n1C)C(=O)N[C@H](C#N)COCc1ccccc1
## Task Given 3 compounds, produce a descending ranking by half-life. Lab note: record answer as labels in requested order.
## Result 1, 3, 2

P. CC(C)C[C@H](NC(=O)CN1CCN(c2ccncc2)CC1)C(=O)N[C@H](C#N)COCc1ccccc1
Q. CC(C)C[C@H](NC(=O)C(C)(C)Oc1ccc(Cl)cc1)C(=O)N[C@H](C#N)COCc1ccccc1
## Task Just tell me: smaller half-life value, P or Q ? Response format: the label of the selected entry.
## Result P

* * *

test system: Rattus norvegicus; experiment: Cmax in rat at 3 mg/kg, po normalized to 1 mg/kg; assay type: ADME, organism-based; parameters: dose 3 mg/kg, route oral; settings: in vivo
recorded.endpoint: Cmax (nM)

a. CC(C)C[C@H](NC(=O)c1cc2ccccc2n1C)C(=O)N[C@H](C#N)COCc1ccccc1
b. Cc1nc[nH]c1CC(=O)N[C@@H](CC(C)C)C(=O)N[C@H](C#N)COCc1ccccc1
## Task Dear colleague, could you let me know whether a or b has the lower recorded Cmax? Thanks. Reply briefly: the label of your chosen item.
## Result b

A. CC(C)C[C@H](NC(=O)C(C)(C)Oc1ccc(Cl)cc1)C(=O)N[C@H](C#N)COCc1ccccc1
B. CC(C)C[C@H](NC(=O)OCc1ccccc1)C(=O)N[C@H](C#N)COCc1ccccc1
## Task Sort A and B by Cmax descending and give the first. Respond using the label that marks the chosen record.
## Result B

* * *

biological target: Procathepsin L (Homo sapiens); experiment: Inhibition of recombinant human cathepsin L
Sequence (P07711 whole entry): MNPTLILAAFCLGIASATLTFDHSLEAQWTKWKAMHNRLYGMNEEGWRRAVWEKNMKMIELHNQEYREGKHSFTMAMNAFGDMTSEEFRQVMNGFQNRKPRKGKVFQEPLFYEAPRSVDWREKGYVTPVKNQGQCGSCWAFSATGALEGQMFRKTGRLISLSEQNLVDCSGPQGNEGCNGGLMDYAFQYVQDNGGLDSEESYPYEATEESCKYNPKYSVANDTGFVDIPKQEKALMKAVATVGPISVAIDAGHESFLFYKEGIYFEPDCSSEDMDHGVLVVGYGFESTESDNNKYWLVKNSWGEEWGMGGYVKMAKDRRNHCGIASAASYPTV
pIC50: −log10 of the molar value.
recorded.endpoint: pIC50

Cc1ccc(C[C@@H](C#N)NC(=O)[C@H](CC(C)C)NC(=O)OCc2ccccc2)cc1 :: 5.00

P. Cc1cccc(C[C@@H](C#N)NC(=O)[C@H](CC(C)C)NC(=O)OCc2ccccc2)c1
Q. CC(C)C[C@H](NC(=O)OCc1ccccc1)C(=O)N[C@H](C#N)COC(C)(C)C
R. Cc1nc[nH]c1CC(=O)N[C@@H](CC(C)C)C(=O)N[C@H](C#N)COCc1ccccc1
## Task Could you please order the items by pIC50, going from the lowest number to the highest? Return value: ordered labels per request.
## Result P, Q, R
(P: 5.11, Q: 5.55, R: 6.96)
